# System Under Test: human ether-à-go-go-related gene (hERG) potassium channel (human);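 note: peak tail current of the secondary pulse compared with the same well before compound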
# Sequence (Q12809 whole entry, looked up): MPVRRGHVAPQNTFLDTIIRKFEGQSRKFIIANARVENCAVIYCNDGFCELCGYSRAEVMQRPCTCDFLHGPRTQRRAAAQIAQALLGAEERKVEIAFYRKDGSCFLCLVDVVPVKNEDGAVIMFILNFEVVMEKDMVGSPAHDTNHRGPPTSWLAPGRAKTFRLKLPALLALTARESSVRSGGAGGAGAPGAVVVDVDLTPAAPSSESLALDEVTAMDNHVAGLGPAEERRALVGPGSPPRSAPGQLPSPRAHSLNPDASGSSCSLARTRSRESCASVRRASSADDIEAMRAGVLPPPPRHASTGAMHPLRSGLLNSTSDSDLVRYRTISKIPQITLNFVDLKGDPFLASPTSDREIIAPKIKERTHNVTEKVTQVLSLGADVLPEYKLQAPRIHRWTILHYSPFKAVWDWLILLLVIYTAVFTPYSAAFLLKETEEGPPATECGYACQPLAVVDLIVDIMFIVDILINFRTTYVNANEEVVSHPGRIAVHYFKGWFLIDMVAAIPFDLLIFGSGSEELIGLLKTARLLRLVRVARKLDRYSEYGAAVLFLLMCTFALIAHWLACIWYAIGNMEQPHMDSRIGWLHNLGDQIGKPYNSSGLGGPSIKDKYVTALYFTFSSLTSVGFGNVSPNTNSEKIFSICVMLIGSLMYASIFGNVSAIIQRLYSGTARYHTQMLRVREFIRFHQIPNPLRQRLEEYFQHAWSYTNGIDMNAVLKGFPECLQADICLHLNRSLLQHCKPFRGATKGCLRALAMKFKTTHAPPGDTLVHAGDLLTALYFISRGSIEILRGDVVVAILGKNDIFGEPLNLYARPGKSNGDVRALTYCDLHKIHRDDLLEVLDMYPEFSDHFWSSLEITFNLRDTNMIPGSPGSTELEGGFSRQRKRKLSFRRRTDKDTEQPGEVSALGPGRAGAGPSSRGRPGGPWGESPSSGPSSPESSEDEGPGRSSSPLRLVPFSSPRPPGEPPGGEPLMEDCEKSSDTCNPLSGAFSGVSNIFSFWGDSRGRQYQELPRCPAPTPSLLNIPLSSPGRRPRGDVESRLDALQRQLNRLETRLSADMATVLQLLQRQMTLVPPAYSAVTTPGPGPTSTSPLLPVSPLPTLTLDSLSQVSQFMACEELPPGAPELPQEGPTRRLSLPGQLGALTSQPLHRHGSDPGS
# Assay Notes: primary screen, population patch clamp on CHO cells stably expressing hERG; higher = less effect of the substance
About 14,000 (4.5%) of roughly 310,000 compounds showed an effect of 50% or more. The effect is printed as a negative number. The sample holds strong results, similar compounds and a random draw of the others, so the mix is not that of the screen.
Quantity: hERG current change (%, negative = inhibition) at 10uM (%)
Provide only the numeric value, understood in %.

Data request, read-out hERG current change (%, negative = inhibition) at 10uM, for COc1ccc(CNCC(O)(c2ccc(F)cc2)c2ccc(F)cc2)cc1
-67.3

Next record, please: COc1cccc(CNCC(O)(c2ccc(Cl)cc2)c2ccc(Cl)cc2)c1
-12.2

Next record, please: Cc1nc2ccccc2nc1OCC(=O)Nc1ccccc1
14.8

Next record, please: O=C(Nc1cnn(Cc2ccccc2)c1)c1cc2nc(-c3ccco3)cc(C(F)(F)F)n2n1
7.2

Next record, please: O=C(COC(=O)CNC(=O)c1ccc(Cl)cc1)Nc1ncc(C(F)(F)F)cc1Cl
-31.8

Next record, please: O=C(C1=C[C@@H](c2coc3ccccc3c2=O)C[C@@H](OCCCCO)O1)N1CCN(Cc2ccc3c(c2)OCO3)CC1
-49.7

Next record, please: O=C(C1=C[C@@H](c2coc3ccccc3c2=O)C[C@@H](OCc2ccc(CO)cc2)O1)N1CCN(Cc2ccc3c(c2)OCO3)CC1
-66.1

Next record, please: CC1=NN(C(=O)c2ccccc2Cl)C(O)(c2cccnc2)C1 (centres unmarked)
17.8

Next record, please: CCOc1ccc(/C=N/NC(=O)CN2CCCCCCC2)cc1
-63

Next record, please: O=C(CCN1CCCCC1)Nc1ccc(Br)cc1
-37.9

Next record, please: O=C(CN1CCCCCC1)N/N=C/c1ccc2ccccc2c1
-64.6

Next record, please: O=C(Cn1nc(C(F)F)cc1C(F)F)N/N=C/c1ccc2c(c1)OCO2
24.7

Next record, please: COc1ccc(C(CC(=O)N2CCN(c3ccccc3)CC2)c2c(OC)cc(OC)c3ccc(=O)oc23)cc1 (centres unmarked)
1.88

Next record, please: COc1ccc(C(=O)NCC(=O)OCC(=O)Nc2ncc(Cl)cc2Cl)cc1[N+](=O)[O-]
-37.3

Next record, please: COc1ccc2nc(SC(C)C(=O)NC3(C#N)CCCCC3)[nH]c2c1 (centres unmarked)
-20.1

Next record, please: O=C(COC(=O)c1ccc([N+](=O)[O-])s1)Nc1ncc(C(F)(F)F)cc1Cl
-63

Next record, please: O=C(C1=C[C@@H](c2csc3ccccc23)C[C@@H](OCc2ccc(CO)cc2)O1)N1CCN(Cc2ccc3c(c2)OCO3)CC1
1.69

Next record, please: COc1ccc(/C=N/NC2=NCCCCC2)cc1
-43.7

Next record, please: CCCCOc1ccc(/C=C/C2=CC(C)(C)NC(=S)N2)cc1OCC
7.58

Next record, please: Cc1ccc(C(O)(CNCc2ccccc2)c2ccccc2)cc1 (centres unmarked)
-33.9

Next record, please: O=C(COC(=O)c1ccccn1)Nc1ncc(C(F)(F)F)cc1Cl
-11.7

Next record, please: CC(=O)n1cc([C@@H]2C=C(C(=O)N3CCN(Cc4ccc5c(c4)OCO5)CC3)O[C@H](OCc3ccc(CO)cc3)C2)c2ccccc21
-17.5

Next record, please: O=C(C1=C[C@H](c2coc3ccccc3c2=O)C[C@H](OCCCCO)O1)N1CCN(Cc2ccc3c(c2)OCO3)CC1
-64.4

Next record, please: CCCCCCC(=O)N/N=C/c1ccc(Br)cc1
1.25

Next record, please: CC(=O)c1ccc(Nc2cc(C)nc3ccc(C)cc23)cc1
-74.5

Next record, please: COc1ccc(CNCC(O)(c2ccccc2)c2ccc(F)cc2)cc1 (centres unmarked)
-73.3

Next record, please: OC(CNCc1ccc(F)cc1)(c1ccccc1)c1ccc(F)cc1 (centres unmarked)
-33.8

Next record, please: O=C(CN1CCCCCCC1)N/N=C/c1ccc(F)c(F)c1
-33.7

Next record, please: N#C/C(=C\c1cccc(OCC(=O)O)c1)c1nc2ccccc2[nH]1
19.6

Next record, please: Cc1c(Cl)cnc(NC(=O)COC(=O)c2ccc([N+](=O)[O-])s2)c1Cl
6.06

Next record, please: CCCOc1ccc(/C=N/NC(=O)CN2CCCCC2)cc1
-49.7

Next record, please: Cc1nnc2c(NC3CCCC3)nc3ccccc3n12
-37.3

Next record, please: Cc1ccc(C)c(SCC(=O)N(C)CC(=O)Nc2ccc(N3CCOCC3)cc2)c1
-5.12

Next record, please: Cc1ccc(C(=O)OCC(=O)Nc2ncc(C(F)(F)F)cc2Cl)cc1NC(=O)c1ccco1
-50.1

Next record, please: OC(CNCc1ccc(F)cc1)(c1ccc(F)cc1)c1ccc(F)cc1
-33.7

Next record, please: Cc1ccc(C(=O)OCC(=O)Nc2ncc(Cl)cc2Cl)cc1NC(=O)c1ccco1
-48.7

Next record, please: Oc1ccc(/C=N/NC2=NCCCCC2)cc1
-16.2

Next record, please: O=C(COC(=O)CNC(=O)c1ccc([N+](=O)[O-])o1)Nc1ncc(C(F)(F)F)cc1Cl
-58.3
